Origin of measurements: patent US20250381168A1

IC50 reference
- systemUnderTest: VLA-4 (a4b1) (Homo sapiens (Human), UniProt P05556+P13612)
- Sequence (P13612 34-1032): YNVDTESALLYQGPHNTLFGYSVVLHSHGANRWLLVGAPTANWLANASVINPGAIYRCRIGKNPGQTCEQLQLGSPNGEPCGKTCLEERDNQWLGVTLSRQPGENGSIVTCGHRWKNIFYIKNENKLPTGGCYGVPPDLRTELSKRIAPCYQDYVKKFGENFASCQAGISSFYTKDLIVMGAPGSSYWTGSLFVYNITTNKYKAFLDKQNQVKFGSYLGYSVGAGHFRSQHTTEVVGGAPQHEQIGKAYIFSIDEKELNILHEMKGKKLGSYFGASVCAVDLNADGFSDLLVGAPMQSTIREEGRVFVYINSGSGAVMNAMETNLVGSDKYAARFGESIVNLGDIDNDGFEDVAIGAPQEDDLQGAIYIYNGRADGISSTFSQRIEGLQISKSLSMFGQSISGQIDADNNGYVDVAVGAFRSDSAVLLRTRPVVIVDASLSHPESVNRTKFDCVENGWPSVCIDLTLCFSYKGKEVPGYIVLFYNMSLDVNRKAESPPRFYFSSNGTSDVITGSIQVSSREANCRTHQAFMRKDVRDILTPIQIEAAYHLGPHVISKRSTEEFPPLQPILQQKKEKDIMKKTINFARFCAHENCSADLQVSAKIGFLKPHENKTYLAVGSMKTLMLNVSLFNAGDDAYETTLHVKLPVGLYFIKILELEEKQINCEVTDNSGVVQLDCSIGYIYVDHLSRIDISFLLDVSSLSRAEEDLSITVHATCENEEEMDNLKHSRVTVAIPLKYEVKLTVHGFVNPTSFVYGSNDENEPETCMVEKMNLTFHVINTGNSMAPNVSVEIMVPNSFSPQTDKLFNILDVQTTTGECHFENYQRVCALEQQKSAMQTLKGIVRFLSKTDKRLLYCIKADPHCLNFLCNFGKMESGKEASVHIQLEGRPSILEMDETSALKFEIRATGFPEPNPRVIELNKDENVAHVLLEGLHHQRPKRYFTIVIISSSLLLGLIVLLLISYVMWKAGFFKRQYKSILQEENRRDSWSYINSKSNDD
- Sequence (P05556 21-798): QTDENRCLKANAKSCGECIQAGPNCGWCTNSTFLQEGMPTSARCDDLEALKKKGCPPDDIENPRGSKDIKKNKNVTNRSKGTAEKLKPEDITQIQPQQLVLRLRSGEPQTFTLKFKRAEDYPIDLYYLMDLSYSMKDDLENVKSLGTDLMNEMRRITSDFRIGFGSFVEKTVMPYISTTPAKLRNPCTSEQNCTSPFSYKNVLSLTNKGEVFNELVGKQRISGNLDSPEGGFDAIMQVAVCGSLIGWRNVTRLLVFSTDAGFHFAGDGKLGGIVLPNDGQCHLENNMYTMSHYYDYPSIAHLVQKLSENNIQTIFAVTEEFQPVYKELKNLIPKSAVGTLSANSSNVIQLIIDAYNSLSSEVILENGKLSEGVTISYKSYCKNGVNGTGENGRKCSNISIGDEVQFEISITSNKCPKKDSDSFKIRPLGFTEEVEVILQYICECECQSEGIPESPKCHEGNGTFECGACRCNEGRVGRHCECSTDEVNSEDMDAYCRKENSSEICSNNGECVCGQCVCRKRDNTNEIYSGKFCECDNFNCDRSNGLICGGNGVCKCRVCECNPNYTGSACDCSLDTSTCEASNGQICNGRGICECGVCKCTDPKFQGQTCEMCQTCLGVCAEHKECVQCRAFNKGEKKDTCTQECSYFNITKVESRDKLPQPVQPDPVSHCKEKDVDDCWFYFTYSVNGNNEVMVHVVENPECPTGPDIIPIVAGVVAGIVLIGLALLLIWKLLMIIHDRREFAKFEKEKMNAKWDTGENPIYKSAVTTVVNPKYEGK
- protocolSummary: sVCAM flow cytometry cell-based assay (inhibition of soluble VCAM-1 binding to G2 ALL cells)
- conditionSet: as listed in TABLE 9; read-out: sVCAM IC50
parameterMeasured: IC50 (nM)

COCCOCCOCCOCc1cc(OC)c(-c2ccc(C[C@H](NC(=O)[C@@H]3CCCN3S(=O)(=O)c3cc(Cl)cc(Cl)c3)C(=O)O)cc2)c(OC)c1 [Example C7]; 0.194
COCCOCCOCCOCCOCCOCCOCCOCCOCCOCCOCCOCCOCCOCCOCCOCCOCCOCCOCCOCCOCCOCCOCCOCCOCc1cc(OC)c(-c2ccc(C[C@H](NC(=O)[C@@H]3CCCN3S(=O)(=O)c3cc(Cl)cc(Cl)c3)C(=O)O)cc2)c(OC)c1 [Example 1]; 0.373
COCCOCCOCCOCCOCCOCCOCCOCCOCCOCCOCCOCCOCCOCCOCCOCCOCc1cc(OC)c(-c2ccc(C[C@H](NC(=O)[C@@H]3CCCN3S(=O)(=O)c3cc(Cl)cc(Cl)c3)C(=O)O)cc2)c(OC)c1 [Example C14]; 0.702
COCCOCCOCCOCCOCCOCCOCCOCCOCCOCCOCCOCCOCCOCCOCCOCCOCCOCCOCCOCCOCCOCCOCCOCCOCCOCCOCCOCCOCCOCCOCCOCCOCCOCCOCCOCCOCc1cc(OC)c(-c2ccc(C[C@H](NC(=O)[C@@H]3CCCN3S(=O)(=O)c3cc(Cl)cc(Cl)c3)C(=O)O)cc2)c(OC)c1 [Example 2]; 0.833
COCCOCCOCCOCCOCCOCCOCCOCCOCCOCCOCCOCCOCc1cc(OC)c(-c2ccc(C[C@H](NC(=O)[C@@H]3CCCN3S(=O)(=O)c3cc(Cl)cc(Cl)c3)C(=O)O)cc2)c(OC)c1 [Example C13]; 0.673
COCCOCCOCCOCCOCCOCCOCCOCCOCc1cc(OC)c(-c2ccc(C[C@H](NC(=O)[C@@H]3CCCN3S(=O)(=O)c3cc(Cl)cc(Cl)c3)C(=O)O)cc2)c(OC)c1 [Example C12]; 0.573

###

pIC50 reference
- systemUnderTest: VLA-4 (a4b1) (Homo sapiens (Human), UniProt P05556+P13612)
- protocolSummary: sVCAM flow cytometry cell-based assay (inhibition of soluble VCAM-1 binding to G2 ALL cells);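 further: compounds at 0.1 to 1000 nM preincubated 30 min with G2 ALL cells, then VCAM/Fc added for 30 min, bound VCAM-1 detected by PE secondary antibody, percent binding cells by flow cytometry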
- conditionSet: as listed in TABLE 11; read-out: sVCAM IC50
pIC50: −log10 of the molar value.
parameterMeasured: pIC50

COCCOCCOCCOCCOCCOCCOCCOCCOCc1cc(OC)c(-c2ccc(C[C@H](NC(=O)[C@@H]3CCCN3S(=O)(=O)c3cc(Cl)cc(Cl)c3)C(=O)O)cc2)c(OC)c1; 9.24
COCCOCCOCCOCCOCCOCCOCCOCCSCc1cc(OC)c(-c2ccc(C[C@H](NC(=O)[C@@H]3CCCN3S(=O)(=O)c3cc(Cl)cc(Cl)c3)C(=O)O)cc2)c(OC)c1; 9.81
COCCOCCOCCOCCOCCOCCOCCOCCOCCOCCOCCOCCOCCOCCOCCOCCOCCOCCOCCOCCOCCOCCOCCOCCOCc1cc(OC)c(-c2ccc(C[C@H](NC(=O)[C@@H]3CCCN3S(=O)(=O)c3cc(Cl)cc(Cl)c3)C(=O)O)cc2)c(OC)c1; 9.43
COCCOCCOCCOCCOCCOCCOCCOCCOCCOCCOCCOCCOCCOCCOCCOCCOCCOCCOCCOCCOCCOCCOCCOCCSCc1cc(OC)c(-c2ccc(C[C@H](NC(=O)[C@@H]3CCCN3S(=O)(=O)c3cc(Cl)cc(Cl)c3)C(=O)O)cc2)c(OC)c1; 8.87
